Hi there, I'd appreciate the recorded log10 IC95 for every entry that follows.
- Tested on: Human immunodeficiency virus 1
- runDescription: Viral spread inhibitory concentration against HIV-1 strain K-60C in MT-4 human T-lymphoid cells
- Assay type: functional
- cond: Human immunodeficiency virus 1, T-lymphoid; read-out: CIC95
Friendly reminder: values = log10 of IC95, unit nM.

*Q* Return value of log10 IC95 for input N#Cc1ccc(-n2ccc(CN3CCN(C[C@@H](O)C[C@@H](Cc4cccnc4)C(=O)N[C@H]4c5ccccc5OC[C@H]4O)[C@H](C(=O)NCC(F)(F)F)C3)c2)cc1 , no commentary.
*A* 2.10

*Q* Quick one: give measured log10 IC95 for O=C(N[C@H]1c2ccccc2OC[C@H]1O)[C@H](Cc1cccnc1)C[C@H](O)CN1CCN(Cc2ccn(-c3cc(Cl)c(Cl)c(Cl)c3)c2)C[C@H]1C(=O)NCC(F)(F)F
*A* 1.49

*Q* Determine its reported log10 IC95: Cc1cccc(-n2ccc(CN3CCN(C[C@@H](O)C[C@@H](Cc4cccnc4)C(=O)N[C@H]4c5ccccc5OC[C@H]4O)[C@H](C(=O)NCC(F)(F)F)C3)c2)c1
*A* 1.79

*Q* Provide measured log10 IC95 value, entry: O=C(N[C@H]1c2ccccc2OC[C@H]1O)[C@H](Cc1cccnc1)C[C@H](O)CN1CCN(Cc2ccn(-c3ccc(Cl)cc3)c2)C[C@H]1C(=O)NCC(F)(F)F
*A* 1.18

*Q* Give recorded log10 IC95. N#Cc1ccccc1-n1ccc(CN2CCN(C[C@@H](O)C[C@@H](Cc3cccnc3)C(=O)N[C@H]3c4ccccc4OC[C@H]3O)[C@H](C(=O)NCC(F)(F)F)C2)c1
*A* 2.40

*Q* Output log10 IC95 of O=C(N[C@H]1c2ccccc2OC[C@H]1O)[C@H](Cc1cccnc1)C[C@H](O)CN1CCN(Cc2ccn(-c3cccc(F)c3)c2)C[C@H]1C(=O)NCC(F)(F)F
*A* 1.49

*Q* Indicate the recorded log10 IC95 value for this compound: O=C(N[C@H]1c2ccccc2OC[C@H]1O)[C@H](Cc1cccnc1)C[C@H](O)CN1CCN(Cc2ccn(-c3ccccc3)c2)C[C@H]1C(=O)NCC(F)(F)F
*A* 1.49

*Q* Please give measured log10 IC95 of the following entry: O=C(N[C@H]1c2ccccc2OC[C@H]1O)[C@H](Cc1cccnc1)C[C@H](O)CN1CCN(Cc2ccn(-c3ccccc3Cl)c2)C[C@H]1C(=O)NCC(F)(F)F
*A* 1.79

*Q* Give reported log10 IC95 value for N#Cc1cccc(-n2ccc(CN3CCN(C[C@@H](O)C[C@@H](Cc4cccnc4)C(=O)N[C@H]4c5ccccc5OC[C@H]4O)[C@H](C(=O)NCC(F)(F)F)C3)c2)c1
*A* 1.79

*Q* Using the record for O=C(N[C@H]1c2ccccc2OC[C@H]1O)[C@H](Cc1cccnc1)C[C@H](O)CN1CCN(Cc2ccn(-c3ccc(F)c(F)c3F)c2)C[C@H]1C(=O)NCC(F)(F)F , state its measured log10 IC95.
*A* 1.18

*Q* Tell me its log10 IC95 given O=C(N[C@H]1c2ccccc2OC[C@H]1O)[C@H](Cc1cccnc1)C[C@H](O)CN1CCN(Cc2ccn(-c3ccc(C(F)(F)F)cc3)c2)C[C@H]1C(=O)NCC(F)(F)F as the entry.
*A* 1.18

*Q* Quote log10 IC95 reported for O=C(N[C@H]1c2ccccc2OC[C@H]1O)[C@H](Cc1cccnc1)C[C@H](O)CN1CCN(Cc2ccn(-c3ccccc3F)c2)C[C@H]1C(=O)NCC(F)(F)F please.
*A* 1.79
